Tested on: CWR22R
measurement notes: Cytotoxicity against human 22Rv1 cells after 72 hrs by MTT assay
Format: functional, cell-based
condition summary: 22Rv1, 72 h
observable: pIC50
For clarity, pIC50 is expressed as the negative log10 of concentration in mol/L.

Answer with reported pIC50 of `CCn1c2ccccc2c2cc(/C=C(\C(=O)/C=C/C3=C(C)CCCC3(C)C)C(=O)/C=C/c3ccc(O)c(OC)c3)ccc21` 5.62

Answer with reported pIC50 of `COc1cc(/C=C/C(=O)/C(=C/c2ccc3ccccc3n2)C(=O)/C=C/C2=C(C)CCCC2(C)C)ccc1O` 5.29

Answer with reported pIC50 of `COc1cc(/C=C/C(O)=C/C(=O)/C=C/C2=C(C)CCCC2(C)C)ccc1O` 4.97

Answer with reported pIC50 of `COc1cc(/C=C(\C(=O)/C=C/C2=C(C)CCCC2(C)C)C(=O)/C=C/c2ccc(O)c(OC)c2)ccc1O` 5.66

Answer with reported pIC50 of `COc1cc(/C=C/C(=O)CC(=O)/C=C/c2ccc(O)c(OC)c2)ccc1O` 4.74

Answer with reported pIC50 of `COc1cc(/C=C/C(O)=C/C(=O)/C=C/C2=C(C)CCCC2(C)C)cc(OC)c1O` 4.91

Answer with reported pIC50 of `CCOc1ccc(/C=C(\C(=O)/C=C/C2=C(C)CCCC2(C)C)C(=O)/C=C/c2ccc(OCC)c(OCC)c2)cc1OCC` 5.03

---

System: LNCaP
measurement notes: Cytotoxicity against human LNCAP cells after 72 hrs by MTT assay
Format: functional, cell-based
observable: pIC50
For clarity, pIC50 is expressed as the negative log10 of concentration in mol/L.

Some solved cases for reference:
| molecular string | observable | recorded value |
| --- | --- | --- |
| COc1cc(/C=C(\C(=O)/C=C/C2=C(C)CCCC2(C)C)C(=O)/C=C/c2ccc(O)c(OC)c2)ccc1O | pIC50 | 5.89 |
| COc1cc(/C=C/C(O)=C/C(=O)/C=C/C2=C(C)CCCC2(C)C)cc(OC)c1OC | pIC50 | 4.67 |
| COc1cc(/C=C/C(=O)CC(=O)/C=C/c2ccc(O)c(OC)c2)ccc1O | pIC50 | 5.07 |
| COc1cc(/C=C/C(O)=C/C(=O)/C=C/C2=C(C)CCCC2(C)C)ccc1O | pIC50 | 4.69 |
| COc1cc(/C=C/C(=O)/C(=C/c2ccc3ccccc3n2)C(=O)/C=C/C2=C(C)CCCC2(C)C)ccc1O | pIC50 | 5.07 |

Could you now look at the following molecule, please?
Answer with reported pIC50 of `CC1=C(/C=C/C(=O)/C(=C\c2ccc(O)cc2)C(=O)/C=C/c2ccc(O)cc2)C(C)(C)CCC1` 5.35

---

Tested on: CWR22R
measurement notes: Cytotoxicity against human 22Rv1 cells after 72 hrs by MTT assay
Type: functional, cell-based
condition summary: 22Rv1, 72 h
// reported IC50 per item
Provide only the numeric value, understood in µM.

Answer with reported IC50 of `COc1cc(/C=C(\C(=O)/C=C/C2=C(C)CCCC2(C)C)C(=O)/C=C/c2cc(OC)c(O)c(OC)c2)cc(OC)c1O` 17.6

Answer with reported IC50 of `COc1cc(/C=C/C(O)=C/C(=O)/C=C/C2=C(C)CCCC2(C)C)cc(OC)c1OC` 17.1

Answer with reported IC50 of `CC1=C(/C=C/C(=O)/C(=C\c2ccc(O)cc2)C(=O)/C=C/c2ccc(O)cc2)C(C)(C)CCC1` 4.7
